- Test System: UniProt P31645
- Sequence (P31645 whole entry): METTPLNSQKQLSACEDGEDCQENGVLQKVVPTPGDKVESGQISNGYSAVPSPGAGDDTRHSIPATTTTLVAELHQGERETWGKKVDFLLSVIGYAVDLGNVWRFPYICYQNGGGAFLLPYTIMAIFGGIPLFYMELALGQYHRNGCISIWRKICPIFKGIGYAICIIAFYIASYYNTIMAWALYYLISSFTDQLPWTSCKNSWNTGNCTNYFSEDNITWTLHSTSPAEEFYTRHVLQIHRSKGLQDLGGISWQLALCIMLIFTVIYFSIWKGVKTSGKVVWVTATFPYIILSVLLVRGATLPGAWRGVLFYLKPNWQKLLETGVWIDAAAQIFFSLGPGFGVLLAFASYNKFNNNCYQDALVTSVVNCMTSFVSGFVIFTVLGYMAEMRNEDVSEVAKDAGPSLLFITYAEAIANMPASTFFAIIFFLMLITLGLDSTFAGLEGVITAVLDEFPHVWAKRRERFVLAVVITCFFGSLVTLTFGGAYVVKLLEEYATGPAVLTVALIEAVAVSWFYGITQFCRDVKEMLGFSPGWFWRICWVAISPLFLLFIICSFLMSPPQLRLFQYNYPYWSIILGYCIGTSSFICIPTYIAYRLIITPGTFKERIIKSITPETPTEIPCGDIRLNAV
- Run Description: Displacement of [3H]-citalopram from human SERT expressed in HEK293 cell membrane
This listing pairs compounds with measured IC50.

- Compound: "CN1C2CCC1[C@@H](COC(=O)CCCCCCC(=O)OC[C@@H]1C3CCC(C[C@@H]1c1ccc(Cl)c(Cl)c1)N3C)[C@@H](c1ccc(Cl)c(Cl)c1)C2"
  IC50 (nM): 31
- Compound: "CN1C2CCC1[C@@H](COC(=O)CCCCC(=O)OC[C@@H]1C3CCC(C[C@@H]1c1ccc(Cl)c(Cl)c1)N3C)[C@@H](c1ccc(Cl)c(Cl)c1)C2"
  IC50 (nM): 56
- Compound: "COC(=O)[C@@H]1C2CCC(C[C@@H]1c1ccc(Cl)c(Cl)c1)O2 (some centres not stated)"
  IC50 (nM): 4.7
- Compound: "CN1C2CC[C@@H]1[C@@H](COC(=O)CCC(=O)OC[C@H]1[C@@H](c3ccc(Cl)c(Cl)c3)CC3CC[C@H]1O3)[C@@H](c1ccc(Cl)c(Cl)c1)C2"
  IC50 (nM): 405
- Compound: "O=C(CCC(=O)OC[C@@H]1C2CCC(C[C@@H]1c1ccc(Cl)c(Cl)c1)S2)OC[C@@H]1C2CCC(C[C@@H]1c1ccc(Cl)c(Cl)c1)O2 (some centres not stated)"
  IC50 (nM): 992
- Compound: "COC(=O)[C@@H]1C2CCC(C[C@@H]1c1ccc(Cl)c(Cl)c1)N2C (some centres not stated)"
  IC50 (nM): 2.5
- Compound: "CN1C2CCC1[C@@H](COC(=O)CCCCCCCCC(=O)OC[C@@H]1C3CCC(C[C@@H]1c1ccc(Cl)c(Cl)c1)N3C)[C@@H](c1ccc(Cl)c(Cl)c1)C2"
  IC50 (nM): 17

----------
- Test System: UniProtKB Q01959
- Sequence (Q01959 whole entry): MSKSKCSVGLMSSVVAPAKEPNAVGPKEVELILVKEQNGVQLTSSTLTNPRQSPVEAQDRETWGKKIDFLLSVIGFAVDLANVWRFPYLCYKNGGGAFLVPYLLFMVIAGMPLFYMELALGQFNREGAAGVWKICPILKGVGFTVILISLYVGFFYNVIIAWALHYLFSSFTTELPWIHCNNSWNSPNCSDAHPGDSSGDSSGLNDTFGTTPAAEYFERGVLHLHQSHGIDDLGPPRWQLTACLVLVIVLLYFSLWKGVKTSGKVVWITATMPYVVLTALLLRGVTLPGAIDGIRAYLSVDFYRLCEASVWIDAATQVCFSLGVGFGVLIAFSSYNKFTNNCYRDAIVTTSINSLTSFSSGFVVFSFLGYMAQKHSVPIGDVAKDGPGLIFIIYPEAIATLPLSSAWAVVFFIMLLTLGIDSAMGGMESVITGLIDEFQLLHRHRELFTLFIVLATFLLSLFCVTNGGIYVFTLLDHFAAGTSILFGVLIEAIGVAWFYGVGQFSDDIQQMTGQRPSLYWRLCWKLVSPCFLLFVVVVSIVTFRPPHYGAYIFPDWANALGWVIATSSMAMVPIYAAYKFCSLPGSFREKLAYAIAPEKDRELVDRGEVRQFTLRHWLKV
- Run Description: Displacement of [3H]WIN-35428 from human DAT expressed in transfected cell membrane
pIC50: −log10 of the molar value.

- Compound: "O=C(CCC(=O)OC[C@@H]1C2CCC(C[C@@H]1c1ccc(Cl)c(Cl)c1)S2)OC[C@@H]1C2CCC(C[C@@H]1c1ccc(Cl)c(Cl)c1)O2 (some centres undefined)"
  pIC50: 5.53
- Compound: "CN1C2CC[C@@H]1[C@@H](COC(=O)CCC(=O)OC[C@H]1[C@@H](c3ccc(Cl)c(Cl)c3)CC3CC[C@H]1O3)[C@@H](c1ccc(Cl)c(Cl)c1)C2"
  pIC50: 7.17
- Compound: "O=C(CCC(=O)OC[C@@H]1C2CCC(C[C@@H]1c1ccc(Cl)c(Cl)c1)S2)OC[C@@H]1C2CCC(C[C@@H]1c1ccc(Cl)c(Cl)c1)S2"
  pIC50: 5.81
- Compound: "CN1C2CCC1[C@@H](COC(=O)CCCCCCCCC(=O)OC[C@@H]1C3CCC(C[C@@H]1c1ccc(Cl)c(Cl)c1)N3C)[C@@H](c1ccc(Cl)c(Cl)c1)C2"
  pIC50: 7.51
- Compound: "COC(=O)[C@@H]1C2CCC(C[C@@H]1c1ccc(Cl)c(Cl)c1)O2 (some centres undefined)"
  pIC50: 8.48
- Compound: "COC(=O)[C@@H]1C2CCC(C[C@@H]1c1ccc(Cl)c(Cl)c1)S2 (some centres undefined)"
  pIC50: 8.70
- Compound: "CN1C2CCC1[C@@H](COC(=O)CCC(=O)OC[C@@H]1C3CCC(C[C@@H]1c1ccc(Cl)c(Cl)c1)N3C)[C@@H](c1ccc(Cl)c(Cl)c1)C2"
  pIC50: 7.92
- Compound: "CN1C2CCC1[C@@H](COC(=O)CCCCCCCCCCC(=O)OC[C@@H]1C3CCC(C[C@@H]1c1ccc(Cl)c(Cl)c1)N3C)[C@@H](c1ccc(Cl)c(Cl)c1)C2"
  pIC50: 6.94
- Compound: "CCCCCCC(=O)OC[C@H]1[C@@H](c2ccc(Cl)c(Cl)c2)CC2CC[C@H]1N2C"
  pIC50: 8.10
